# TESTED_TARGET: SIRT1 (Homo sapiens)
# Sequence (Q96EB6 1-747): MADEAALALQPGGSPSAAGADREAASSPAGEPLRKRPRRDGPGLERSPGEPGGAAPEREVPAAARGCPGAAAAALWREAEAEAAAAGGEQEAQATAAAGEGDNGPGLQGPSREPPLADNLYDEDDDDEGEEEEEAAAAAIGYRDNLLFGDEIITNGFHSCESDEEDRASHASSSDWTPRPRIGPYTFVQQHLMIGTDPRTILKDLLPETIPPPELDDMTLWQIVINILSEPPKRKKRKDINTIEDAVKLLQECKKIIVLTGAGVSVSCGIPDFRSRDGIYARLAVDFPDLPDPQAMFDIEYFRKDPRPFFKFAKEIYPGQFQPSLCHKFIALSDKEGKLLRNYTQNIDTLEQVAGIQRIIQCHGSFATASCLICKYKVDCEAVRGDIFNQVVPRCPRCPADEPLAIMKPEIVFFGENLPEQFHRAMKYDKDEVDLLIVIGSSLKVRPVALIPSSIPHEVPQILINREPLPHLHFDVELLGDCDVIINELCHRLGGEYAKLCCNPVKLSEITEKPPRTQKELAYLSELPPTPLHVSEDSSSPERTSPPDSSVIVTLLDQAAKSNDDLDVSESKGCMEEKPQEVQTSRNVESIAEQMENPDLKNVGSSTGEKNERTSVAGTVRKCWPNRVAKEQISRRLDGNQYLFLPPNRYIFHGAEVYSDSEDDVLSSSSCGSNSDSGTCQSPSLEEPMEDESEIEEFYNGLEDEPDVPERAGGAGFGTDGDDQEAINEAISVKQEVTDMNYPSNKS
# TEST_DESCRIPTION: In vitro inhibition of SIRT1 by cambinol analogs
# MEASUREMENT_CONDITIONS: compared with cambinol (1)
READOUT_KIND: activity against SIRT1 in words

>>> endpoint_value("O=c1[nH]c(=S)[nH]c(-c2cccc(Br)c2)c1Cc1c(O)ccc2ccccc12 [Compound 6viii]")
"SIRT1 activity was lost"
>>> endpoint_value("O=c1[nH]c(=S)[nH]c(-c2ccccc2Br)c1Cc1c(O)ccc2ccccc12 [Compound 6vii]")
"SIRT1 activity was lost"
